Tested on: Jurkat (Homo sapiens)
EXPERIMENT DESCRIPTION: In vitro inhibition of Jurkat cell apoptosis at 10 uM of compound
Quick list: Inhibition per entry.
PROPERTY LABEL: Inhibition (%)

{"columns": ["SMILES REPRESENTATION", "TARGET", "MEAS VALUE"],
 "data": [
  ["COC[C@@H]1CCCN1S(=O)(=O)c1ccc2c(c1)C(=O)C(=O)N2", "Jurkat (Homo sapiens)", 22],
  ["O=C1Nc2ccc(S(=O)(=O)N3CCC[C@H]3CNc3ccccc3)cc2C1=O", "Jurkat (Homo sapiens)", 8],
  ["O=C1Nc2ccc(S(=O)(=O)N3CCC[C@H]3COc3ccccc3)cc2C1=O", "Jurkat (Homo sapiens)", 51],
  ["CN1C(=O)C(=O)c2cc(S(=O)(=O)N3CCC[C@H]3COc3ccccc3)ccc21", "Jurkat (Homo sapiens)", 41],
  ["COC[C@H]1CCCN1S(=O)(=O)c1ccc2c(c1)C(=O)C(=O)N2", "Jurkat (Homo sapiens)", 15],
  ["O=C1C(=O)N(Cc2ccccc2)c2ccc(S(=O)(=O)N3CCC[C@H]3COc3ccccc3)cc21", "Jurkat (Homo sapiens)", 27],
  ["C=CCN1C(=O)C(=O)c2cc(S(=O)(=O)N3CCC[C@H]3COc3ccccc3)ccc21", "Jurkat (Homo sapiens)", 60]
]}
